Where do the numbers come from? From paper PMC6792352.

# protocol_description: in vitro
# protocol_conditions: rat, gh3-tre-luc cells, AC50 (uM) modified / 1000
Structures can show the parent of a compound that is named as a salt.
As shown below, each of these compounds has a reported CC50 at 24 h value.
endpoint: CC50 at 24 h

compound="CCCCC(CC)COC(=O)CCCCCCCCC(=O)OCC(CC)CCCC (centres unmarked) [Bis(2-ethylhexyl) decanedioate]" endpoint="CC50 at 24 h" observed_measurement="> 90 µM"
compound="CO[C@H]1C[C@@H]2CC[C@@H](C)[C@@](O)(O2)C(=O)C(=O)N2CCCC[C@H]2C(=O)O[C@H]([C@H](C)C[C@@H]2CC[C@@H](OC(=O)C(C)(CO)CO)[C@H](OC)C2)CC(=O)[C@H](C)/C=C(\\C)[C@@H](O)[C@@H](OC)C(=O)[C@H](C)C[C@H](C)/C=C/C=C/C=C/1C [Temsirolimus]" endpoint="CC50 at 24 h" observed_measurement="> 50 µM"
compound="Fc1ccccc1[C@@H](F)COC1CCC(Nc2ncnc3[nH]ncc23)CC1 (some centres unmarked) [MK-968]" endpoint="CC50 at 24 h" observed_measurement="82.7 µM"
compound="Oc1cccc2cc3cccc(O)c3c(O)c12 [1,8,9-Trihydroxyanthracene]" endpoint="CC50 at 24 h" observed_measurement="> 90 µM"
compound="[N-]=[N+]=CC(=O)OC[C@H](N)C(=O)O [Azaserine]" endpoint="CC50 at 24 h" observed_measurement="> 50 µM"
compound="O=C(O)C(O)[C@H](O)[C@@H](O)[C@H](O)[C@H](O)CO (stereo partly drawn) [D-Gluco-heptonic acid, monosodium salt]" endpoint="CC50 at 24 h" observed_measurement="> 90 µM"
compound="Nc1ccccc1N [1,2-Phenylenediamine dihydrochloride]" endpoint="CC50 at 24 h" observed_measurement="> 90 µM"
compound="CC(C)CN(C[C@@H](OP(=O)(O)O)[C@H](Cc1ccccc1)NC(=O)O[C@H]1CCOC1)S(=O)(=O)c1ccc(N)cc1 [Fosamprenavir calcium]" endpoint="CC50 at 24 h" observed_measurement="> 50 µM"
compound=C[C@H]1[C@@H](c2ccccc2)NC(=O)N1C endpoint="CC50 at 24 h" observed_measurement="> 90 µM"
compound="Cc1ccccc1C(=O)N1CC/C(=N\\OS(=O)(=O)O)c2ccc(Cl)cc21 [Alilusem potassium]" endpoint="CC50 at 24 h" observed_measurement="> 50 µM"
compound="CC1=NNC(=O)N(/N=C/c2cccnc2)C1 [Pymetrozine]" endpoint="CC50 at 24 h" observed_measurement="> 90 µM"
compound="c1ccc(Cc2ccccc2)cc1 [Diphenylmethane]" endpoint="CC50 at 24 h" observed_measurement="> 90 µM"
compound="C#C[C@]1(OC(C)=O)CC[C@H]2[C@@H]3CCC4=CC(=NO)CC[C@@H]4[C@H]3CC[C@@]21CC (mixture of isomers) [Norgestimate]" endpoint="CC50 at 24 h" observed_measurement="30.6 µM"
compound="CCN(CC)C(=O)N1CCN(C)CC1 [Diethylcarbamazine citrate]" endpoint="CC50 at 24 h" observed_measurement="> 20 µM"
compound="O=C(Nc1ccc(C(=O)O)c(O)c1)c1ccccc1 [Benzoylpas]" endpoint="CC50 at 24 h" observed_measurement="> 50 µM"
compound="CN1CCC(CN2c3ccccc3Sc3ccccc32)C1 (centres unmarked) [Methdilazine hydrochloride]" endpoint="CC50 at 24 h" observed_measurement="8.75 µM"
compound="Cc1cc2c(OCC(CNC(C)(C)C)OC(=O)c3ccccc3)cccc2[nH]1 (centres unmarked) [Bopindolol]" endpoint="CC50 at 24 h" observed_measurement="42.5 µM"
compound="COC(=O)CCCCCCCCC(=O)OC [Dimethyl decanedioate]" endpoint="CC50 at 24 h" observed_measurement="> 90 µM"
compound="CC1(C)S[C@@H]2[C@H](NC(=O)[C@H](NC(=O)N3CCN(S(C)(=O)=O)C3=O)c3ccccc3)C(=O)N2[C@H]1C(=O)O [Mezlocillin]" endpoint="CC50 at 24 h" observed_measurement="> 50 µM"
compound="CN=C=O [Methyl isocyanate]" endpoint="CC50 at 24 h" observed_measurement="> 90 µM"
compound="CC[N+](CC)(CC)CCOC(=O)C(C1CCCC1)C1CCCC1 [Diponium bromide]" endpoint="CC50 at 24 h" observed_measurement="> 50 µM"
compound="CS(=O)(=O)OCCCNCCCOS(C)(=O)=O [Improsulfan tosylate]" endpoint="CC50 at 24 h" observed_measurement="> 50 µM"
compound="C=C1C[C@@H]2[C@H](CC[C@]3(C)C(=O)CC[C@@H]23)[C@@]2(C)C=CC(=O)C=C12 [Exemestane]" endpoint="CC50 at 24 h" observed_measurement="> 50 µM"
compound="Cc1ccc(Cl)c(Nc2ccccc2C(=O)O)c1Cl [Meclofenamate sodium]" endpoint="CC50 at 24 h" observed_measurement="> 50 µM"
compound="CN[C@H](CC(C)C)C(=O)N[C@H]1C(=O)N[C@@H](CC(N)=O)C(=O)N[C@H]2C(=O)N[C@H]3C(=O)N[C@H](C(=O)N[C@H](C(=O)O)c4cc(O)cc(O)c4-c4cc3ccc4O)[C@H](O)c3ccc(c(Cl)c3)Oc3cc2cc(c3O[C@@H]2O[C@H](CO)[C@@H](O)[C@H](O)[C@H]2O[C@H]2C[C@](C)(N)[C@H](O)[C@H](C)O2)Oc2ccc(cc2Cl)[C@H]1O [Vancomycin hydrochloride]" endpoint="CC50 at 24 h" observed_measurement="> 50 µM"
compound="CS(=O)(=O)c1ccc(C(=O)C2C(=O)CCCC2=O)c([N+](=O)[O-])c1 [Mesotrione]" endpoint="CC50 at 24 h" observed_measurement="> 90 µM"
compound="O=Cc1ccc(C(=O)O)cc1 [4-Carboxybenzaldehyde]" endpoint="CC50 at 24 h" observed_measurement="> 90 µM"
compound="CCCCc1c(C)nc(NCC)nc1OS(=O)(=O)N(C)C [Bupirimate]" endpoint="CC50 at 24 h" observed_measurement="> 90 µM"
compound="CN1C(=O)COc2c(C(=O)NC3CN4CCC3CC4)cc(Cl)cc21 (centres unmarked) [Azasetron]" endpoint="CC50 at 24 h" observed_measurement="42.1 µM"
compound="O=C(c1ccc(O)c(O)c1)c1ccc(O)cc1O [2,3',4,4'-Tetrahydroxybenzophenone]" endpoint="CC50 at 24 h" observed_measurement="49.5 µM"
compound="[O-][n+]1cc[n+]([O-])c2ccccc21 [Quindoxin]" endpoint="CC50 at 24 h" observed_measurement="> 50 µM"
compound="CC(=O)Nc1c(I)c(NC(C)=O)c(I)c(C(=O)O)c1I [Diatrizoic acid dihydrate]" endpoint="CC50 at 24 h" observed_measurement="> 50 µM"
